TGI reference
Test system: NCI-H522 lung
Experiment Description: NCI tumour cell line growth inhibition, 48 h
Observed Property: TGI (µM)

> print(dat)
                                   molecule  measurement.qualifier  recorded.value
1  CCn1c(SCC(=O)N/N=C2\SCC(=O)N2c2ccc(C)cc2)nc2ccccc2c1=O                      =            62.1
2  CC(Oc1ccc2c(-c3ccc(Cl)cc3)cc(=O)oc2c1)C(=O)O (stereo not drawn)                      >             100
3  C=CCC1(C(=O)OC)CCC/C(=N\O)C1 (stereo not drawn)                      >              10
4  CC(=O)O.CN1[CH-]N(Cc2ccc(C#N)cc2)c2ccccc21.[Ag+]                      =            82.4
5    O=C1C(Cl)=C(Cl)C(=O)C(CCNc2nccs2)=C1Cl                      =            51.3
6  COc1ccc2c(c1)c1c3c(ccc4ncn2c43)N(CCO)CCN=1                      =           0.277
7           COC(=O)c1cc2c(c(C(=O)OC)c1)CCC2                      >             100
8  COc1ccc(Nc2nc(NCCNc3ccnc4cc(Cl)ccc34)nc(N3CCOCC3)n2)cc1                      =            11.5
